Target: CAIX (UniProt Q16790 38-414)
# log10 of Kd per record follows
Value Kind: log10 of Kd (log10 of the value in nM)

Binder	Observed Measurement
G106 (antibody, V domains shown) VH: EVQLVQSGGGLVQPGGSLRLSCAASGFTFSSYAMSWVRQAPGKGLEWVSAISANGGTTYYADSVKGRFTISRDNSKNTLYLQMNSLRAEDTAVYYCANNGNYRGAFDIWGQGTTVTVSS VL: QSVLTQPPSVSGAPGQRVTISCTGSSSNIGAGFDVHWYQQLPGTAPRLLIYGNNNRPSGVPDRFSGSKSGTSASLAITGLQAEDETDYFCQSYDSSLSAWVFGGGTKVTVLR	0.51
G119 (antibody, V domains shown) VH: QVQLVQSGGGLVQPGGSLRLSCAASGFPFSSYAMSWVRQAPGKGLEWVSAISANGGTTYYADSVKGRFTISRDNSKNTLYLQMNSLRAEDTAVYYCANNGNYRGAFDIWGQGTMVIVSS VL: QSVLTQPPSVSGAPGQRVTISCTGSSSNIGAGYDVHWYQQLPGTAPKLLIYGNTNRPSGVPDRFSGSKSGTSASLAIIGLQADDEADYYCQSYDSTLRVWMFGGGTKLTVLG	0.17
G27 (antibody, V domains shown) VH: QVTLKESGGGVVQPGTSLRLSCAASGFTFSNYAMTWVRQAPGKGLEWVGLISYDGSVTHYTDSVKGRFTISRDNAKNSLYLQMNTLRADDTAVYYCARGSGYQEHWGQGTLVTVSS VL: LPVLTQPPSVSVAPGQTARITCGGNNIGSKSVEWYQQKPGQAPVLVIYYDSDRPSGIPERFSGSNSGNTATLTISRVEAGDEADYYCQVWDSSSDHHVVFGGGTKLTVLG	1.40
G37 (antibody, V domains shown) VH: QVQLVQSGGGVVQPGGSLRLSCAASGFPFSSYAMSWVRQAPGKGLEWVSAISANGGTTYYADSVKGRFTISRDNSKNTLYLQMNSLRAEDTAVYYCANNGNYRGAFDIWGQGTMVTVSS VL: QSVLTQPPSVSGAPGQRITISCTGSRSNIGADYDVHWYQQLPGTAPKLLIYANNNRPSGVPDRFSGSKSGTSASLAITGLQAEDETDYFCQSYDSSLSAWVFGGGTKVTVLG	0.28
G36 (antibody, V domains shown) VH: EVQLVQSGGGVVQPGGSLRLSCAASGFPFSSYAMSWVRQAPGKGLEWVSAISANGGTTYYADSVKGRFTISRDNSKNTLYLQMNSLRAEDTAVYYCANNGNYRGAFDIWGQGTMVTVSS VL: QSVLTQPPSVSGAPGQRVTISCTGSSSNIGAGFDVHWYQQLPGTAPKLLIYGNTNRPSGVPDRFSGSKSGTSASLAITGLQAEDETDYYCQSYDSRLSAWVFGGGTKLTVLG	0.51
